The measured values listed here are drawn from patent US20250282757A1.

target: GLP-1R (Homo sapiens, UniProt P43220)
Sequence (P43220 24-463): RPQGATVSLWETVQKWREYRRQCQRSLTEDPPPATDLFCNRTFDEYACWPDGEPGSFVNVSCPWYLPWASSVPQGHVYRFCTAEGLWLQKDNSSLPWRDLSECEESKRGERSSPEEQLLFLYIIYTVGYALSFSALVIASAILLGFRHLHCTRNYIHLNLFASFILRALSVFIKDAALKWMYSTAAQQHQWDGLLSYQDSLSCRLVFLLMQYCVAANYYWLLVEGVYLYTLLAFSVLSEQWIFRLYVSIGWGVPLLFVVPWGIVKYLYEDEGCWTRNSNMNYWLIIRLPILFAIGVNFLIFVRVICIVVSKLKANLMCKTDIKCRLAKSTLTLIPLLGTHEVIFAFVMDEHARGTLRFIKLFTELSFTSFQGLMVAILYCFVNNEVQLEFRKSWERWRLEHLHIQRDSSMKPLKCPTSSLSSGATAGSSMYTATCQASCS
assayExplanation: Agonist activity on GLP-1R, HTRF cAMP detection in stably transfected GLP-1R/HEK293 cells
Type: cell-based
conditionContext: relative to top concentration of reference GLP-1(7-37)
experimentalReadout: Max activity (%)

Worked examples, 3 compounds total:
In [3]: df
Out[3]:
                                   compound                                 target  reportedresult
0  N#Cc1ccc(COc2cccc(COC3CCN(Cc4nc5ccc(C(=O)O)cc5n4C[C@@H]4CCO4)CC3)n2)c(F)c1  GLP-1R (Homo sapiens, UniProt P43220)            92.7
1  N#Cc1ccc(OCc2cccc(OC3CCN(Cc4nc5ccc(C(=O)O)cc5n4Cc4cncn4CC4CC4)CC3)c2)c(F)c1  GLP-1R (Homo sapiens, UniProt P43220)           137.0
2  CCn1cncc1Cn1c(Cc2ccc(Oc3cccc(COc4ccc(Cl)cc4F)n3)cc2)nc2ccc(C(=O)O)cc21  GLP-1R (Homo sapiens, UniProt P43220)           76.88

I = N#CCC1(Cn2c(CN3CCC(Oc4cccc(CSc5ccc(Cl)cc5F)n4)CC3)nc3ccc(C(=O)O)cc32)CC1
II = CCn1nccc1Cn1c(CN2CCC(Oc3cccc(COc4ccc(C#N)cc4F)n3)CC2)nc2ccc(C(=O)O)cc21
Lab notebook, comparison: I versus II , higher Max activity goes to which? // output: label of the selected item
II
(II: 142.8%, I: 90.1%)

I = C#Cc1ccc(OCc2cccc(OC3CCN(Cc4nc5ccc(C(=O)O)cc5n4Cc4cncn4C(C)C)CC3)c2)c(F)c1
II = N#Cc1ccc(COc2cccc(OC3CN(Cc4nc5ccc(C(=O)O)cc5n4C[C@@H]4CCO4)C3)n2)c(F)c1
Lab notebook, comparison: I versus II , higher Max activity goes to which? // output: label of the selected item
I

###

target: UniProtKB P43220
assayExplanation: Agonist activity on GLP-1R, HTRF cAMP detection in stably transfected GLP-1R/HEK293 cells
Format: cell-based
conditionContext: relative to top concentration of reference GLP-1(7-37)
experimentalReadout: Max activity (%)

>>> print(df.to_string())
                                    compound            target  unitabbrev  reportedresult
 0  N#CCC1(Cn2c(CN3CCC(Oc4cccc(OCc5ccc(C#N)cc5F)n4)CC3)nc3c(F)cc(C(=O)O)cc32)CC1  UniProtKB P43220           %           129.1
 1  CCn1cncc1Cn1c(CN2CCC(Oc3cccc(COc4ccc(Br)cc4F)n3)CC2)nc2ccc(C(=O)O)cc21  UniProtKB P43220           %           122.3
 2  CC1(Cn2c(CN3CCC(Oc4cccc(COc5ccc(C#N)cc5F)n4)CC3)nc3ccc(C(=O)O)cc32)COC1  UniProtKB P43220           %           112.6
 3  CCn1cncc1Cn1c(CN2CCC(Oc3cccc(COc4ccc(C#N)cc4F)n3)CC2)nc2ccc(C(=O)O)cc21  UniProtKB P43220           %           116.8
 4  N#CCC1(Cn2c(CN3CCC(Oc4cccc(COc5ccc(C#N)cc5F)n4)CC3)nc3ccc(C(=O)O)nc32)CC1  UniProtKB P43220           %           125.0
 5  CCn1cncc1Cn1c(CN2CCC(Nc3cccc(COc4ccc(C#N)cc4F)n3)CC2)nc2ccc(C(=O)O)cc21  UniProtKB P43220           %           127.7
 6  N#CCC1(Cn2c(CN3CCC(Oc4ccc(F)c(OCc5ccc(Cl)cc5F)n4)CC3)nc3c(F)cc(C(=O)O)cc32)CC1  UniProtKB P43220           %            94.8
 7  O=C(O)c1ccc2nc(CN3CCC(Oc4cccc(CSc5ccc(Cl)cc5F)n4)CC3)n(C[C@@H]3CCO3)c2c1  UniProtKB P43220           %           117.4
 8  CC(C)n1cncc1Cn1c(CN2CCC(Oc3cccc(COc4ccc(C#N)cc4F)n3)CC2)nc2ccc(C(=O)O)cc21  UniProtKB P43220           %           106.6
 9  N#Cc1ccc(COc2cccc(Oc3cc(F)c(Cc4nc5c(F)cc(C(=O)O)cc5n4C[C@@H]4CCO4)cc3F)n2)c(F)c1  UniProtKB P43220           %            88.8
10  N#Cc1ccc(OCc2cccc(OC3CCN(Cc4nc5c(F)cc(C(=O)O)cc5n4C[C@@H]4CCO4)CC3)n2)c(F)c1  UniProtKB P43220           %           124.9
11  CCn1cncc1Cn1c(CN2CCC(Oc3cccc(COc4ccc(C#N)cc4F)n3)CC2)nc2ccc(C(=O)O)nc21  UniProtKB P43220           %           114.8
